Molecular target: tau (Homo sapiens, UniProt P10636)
Sequence (P10636 623-695 limits assumed): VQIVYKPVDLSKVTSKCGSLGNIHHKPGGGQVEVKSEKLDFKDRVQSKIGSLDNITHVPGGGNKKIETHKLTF
Test: MCE Phenols Library screening, tau biosensor cell seeding assay (AvZ)
Type: cell-based
Conditions: Z score, replicate 2
Threshold check on Z Repl 2: strictly below -0.2 is yes (1); on or above -0.2 is no (0).

N[C@@H](Cc1c[nH]c2ccc(O)cc12)C(=O)O [L-5-Hydroxytryptophan] = yes (1)
COc1cc2c(=O)c(-c3ccc(O)cc3)coc2cc1O[C@@H]1O[C@H](COC(C)=O)[C@@H](O)[C@H](O)[C@H]1O = yes (1)
COc1ccc(-c2oc3c(CC=C(C)C)c(O)cc(O)c3c(=O)c2O)cc1 = no (0)
N[C@@H](Cc1ccc(O)c(Cl)c1)C(=O)O = yes (1)
O=c1c(O[C@@H]2O[C@H](CO)[C@@H](O)[C@H](O)[C@H]2O)c(-c2ccc(O)c(O)c2)oc2cc(O[C@@H]3O[C@H](CO[C@@H]4O[C@H](CO)[C@@H](O)[C@H](O)[C@H]4O)[C@@H](O)[C@H](O)[C@H]3O)cc(O)c12 = yes (1)
O=c1cc(-c2ccc(O)cc2)oc2cccc(O)c12 [4',5-Dihydroxyflavone] = no (0)
Oc1cc2c(cc1O)[C@@H]1c3ccc(O)c(O)c3OC[C@]1(O)C2 = yes (1)

Below: the item to evaluate.
Hello, I'm reviewing records and need to know if Z Repl 2 of COC(=O)/C=C/c1ccc(O)cc1 [(E)-Methyl 4-coumarate] is below -0.2. Could you check? yes (1)
